The values you see were collected from patent US20220025021A1.

Biological target: HIV-1 Env of pseudovirus Du172.17 (HIV-1)
Assay: cell-based or functional assay
reported-endpoint: neutralization IC80

Exercise: Please supply the value of reported neutralization IC80 for the item MS-79 (antibody, V domains shown) VH: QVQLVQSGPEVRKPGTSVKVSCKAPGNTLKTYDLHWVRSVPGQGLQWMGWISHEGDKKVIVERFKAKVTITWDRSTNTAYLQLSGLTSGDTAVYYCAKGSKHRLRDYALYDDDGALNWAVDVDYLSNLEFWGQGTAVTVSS VL: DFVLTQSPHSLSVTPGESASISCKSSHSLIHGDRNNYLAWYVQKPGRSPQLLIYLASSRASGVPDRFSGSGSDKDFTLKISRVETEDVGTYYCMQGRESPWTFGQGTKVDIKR
Solution: > 25 µg/mL

Exercise: Please supply the value of reported neutralization IC80 for the item MS-92 (antibody, V domains shown) VH: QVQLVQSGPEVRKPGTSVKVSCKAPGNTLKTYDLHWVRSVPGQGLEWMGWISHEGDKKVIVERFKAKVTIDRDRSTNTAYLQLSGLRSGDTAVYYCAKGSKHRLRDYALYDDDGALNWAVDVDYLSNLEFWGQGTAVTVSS VL: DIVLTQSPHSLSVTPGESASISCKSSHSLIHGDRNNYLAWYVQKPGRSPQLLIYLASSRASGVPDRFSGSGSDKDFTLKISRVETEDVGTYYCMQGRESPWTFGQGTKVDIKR
Solution: > 25 µg/mL

Exercise: Please supply the value of reported neutralization IC80 for the item MS-89 (antibody, V domains shown) VH: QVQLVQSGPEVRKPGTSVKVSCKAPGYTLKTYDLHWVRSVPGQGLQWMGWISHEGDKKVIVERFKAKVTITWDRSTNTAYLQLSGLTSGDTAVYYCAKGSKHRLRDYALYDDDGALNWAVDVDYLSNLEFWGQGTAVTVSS VL: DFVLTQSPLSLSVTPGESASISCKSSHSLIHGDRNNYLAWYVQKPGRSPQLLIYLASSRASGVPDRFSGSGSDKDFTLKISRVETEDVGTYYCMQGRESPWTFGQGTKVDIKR
Solution: > 25 µg/mL
